Reported GI50 values, UACC-257 melanoma.
QUANTITY NAME: GI50

compound=Cc1sc2nc(NCCc3c[nH]c4ccc(Cl)cc34)[nH]c(=O)c2c1C measurement_target="UACC-257 melanoma" quantity_name=GI50 measured_value="2.14 µM"
compound=COc1cc(/C=C2\C(=O)Nc3ccc(F)cc32)cc(OC)c1OC measurement_target="UACC-257 melanoma" quantity_name=GI50 measured_value="87.6 µM"
compound="COC(=O)[C@@H](NC(=O)[C@@H](OC)[C@@H]1Cc2cc3cc(OC4CC(OC5CC(O)C(O)C(C)O5)C(O)C(C)O4)c(C)c(O)c3c(O)c2C(=O)[C@H]1OC1CC(OC2CC(OC3CC(C)(O)C(O)C(C)O3)C(O)C(C)O2)C(O)C(C)O1)C(C)C (some centres not stated)" measurement_target="UACC-257 melanoma" quantity_name=GI50 measured_value="0.128 µM"
compound=OCCCCC#Cc1ccccc1C#Cc1cccc(O)c1 measurement_target="UACC-257 melanoma" quantity_name=GI50 measured_value="18.1 µM"
compound="Cc1c(C2Nc3ccccc3C2C)[nH]c2ccccc12 (configuration not stated)" measurement_target="UACC-257 melanoma" quantity_name=GI50 measured_value="12.4 µM"
compound=CC(=O)O[C@@H]1C[C@]2(C(C)C)O[C@@]1(C)[C@@H]1CCC(C)=C1[C@@H]2OC(=O)/C=C/c1ccccc1 measurement_target="UACC-257 melanoma" quantity_name=GI50 measured_value="27.8 µM"
compound="O=C(O)c1cc(O)c2c(c1)C(C1c3cc(C(=O)O)cc(O)c3C(=O)c3c(OC4OC(CO)C(O)C(O)C4O)cccc31)c1cccc(OC3OC(CO)C(O)C(O)C3O)c1C2=O (configuration not stated)" measurement_target="UACC-257 melanoma" quantity_name=GI50 measured_value="> 100 µM"
compound=Cc1[nH]n(-c2cccc(Cl)c2)c(=O)c1/C=C1\C=Nc2ccc(Br)cc21 measurement_target="UACC-257 melanoma" quantity_name=GI50 measured_value="85.7 µM"
compound=COc1cc2cn3c4ccc(O)cc4[nH]c(=O)c3c2cc1OC measurement_target="UACC-257 melanoma" quantity_name=GI50 measured_value="< 0.0212 µM"
compound=CC(=O)Oc1ccc(Nc2c3ccccc3nc3ccccc23)cc1 measurement_target="UACC-257 melanoma" quantity_name=GI50 measured_value="1.51 µM"
compound=CC(=O)Oc1ccccc1C(=O)N=C1[Se]CCN1C(=O)c1ccccc1OC(C)=O measurement_target="UACC-257 melanoma" quantity_name=GI50 measured_value="1.02 µM"
compound=Fc1ccc(Nc2cc(-n3nnc4ccccc43)nc3ccccc23)cc1 measurement_target="UACC-257 melanoma" quantity_name=GI50 measured_value="70.1 µM"
